Target: HER-4 (Homo sapiens)
Construct: purchased Promega
Sequence (Q15303 26-1308): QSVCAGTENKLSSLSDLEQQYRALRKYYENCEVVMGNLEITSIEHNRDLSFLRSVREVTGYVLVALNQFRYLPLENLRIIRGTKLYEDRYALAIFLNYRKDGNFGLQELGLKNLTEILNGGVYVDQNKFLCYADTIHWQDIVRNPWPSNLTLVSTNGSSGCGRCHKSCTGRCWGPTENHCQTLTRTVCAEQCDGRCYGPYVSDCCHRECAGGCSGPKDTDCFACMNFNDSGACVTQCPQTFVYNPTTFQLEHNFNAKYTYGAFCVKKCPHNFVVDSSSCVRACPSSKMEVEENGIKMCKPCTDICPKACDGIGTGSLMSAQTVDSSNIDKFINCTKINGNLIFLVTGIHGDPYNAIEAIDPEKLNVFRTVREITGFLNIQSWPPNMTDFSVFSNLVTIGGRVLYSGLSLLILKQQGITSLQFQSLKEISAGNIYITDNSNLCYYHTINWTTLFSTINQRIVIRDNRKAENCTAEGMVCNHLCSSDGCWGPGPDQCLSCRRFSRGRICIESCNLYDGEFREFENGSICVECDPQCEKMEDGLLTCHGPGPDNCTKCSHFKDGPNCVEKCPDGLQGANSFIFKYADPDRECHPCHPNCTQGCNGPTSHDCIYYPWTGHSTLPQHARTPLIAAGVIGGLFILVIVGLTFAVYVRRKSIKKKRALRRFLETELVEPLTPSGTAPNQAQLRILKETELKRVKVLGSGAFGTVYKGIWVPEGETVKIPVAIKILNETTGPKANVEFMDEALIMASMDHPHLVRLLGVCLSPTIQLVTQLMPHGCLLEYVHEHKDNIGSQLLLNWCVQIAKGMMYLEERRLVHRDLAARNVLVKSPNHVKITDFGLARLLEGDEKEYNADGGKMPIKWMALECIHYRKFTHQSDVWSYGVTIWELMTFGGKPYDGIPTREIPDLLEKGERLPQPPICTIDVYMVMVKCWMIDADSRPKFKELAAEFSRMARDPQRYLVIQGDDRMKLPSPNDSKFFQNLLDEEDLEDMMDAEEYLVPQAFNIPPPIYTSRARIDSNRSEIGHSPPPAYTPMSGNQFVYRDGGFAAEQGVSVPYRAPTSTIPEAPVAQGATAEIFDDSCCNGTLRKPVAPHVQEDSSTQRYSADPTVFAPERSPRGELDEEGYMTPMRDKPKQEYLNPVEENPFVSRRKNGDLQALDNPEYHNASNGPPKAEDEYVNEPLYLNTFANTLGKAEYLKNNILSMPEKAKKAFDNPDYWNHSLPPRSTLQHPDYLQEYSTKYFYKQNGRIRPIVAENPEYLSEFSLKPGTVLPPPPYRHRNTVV
Protocol description: ADP-Glo kinase inhibitory assay, HER-4
Assay type: biochemical
Condition parameters: read-out: % Inhibition at 10 nM, HER-4
Readout label: inhibition at 0.01 µM (%)
Give a bare numeral; the unit % is implied.

Example results:
Cc1cn(-c2cc(NC(=O)c3ccc(CN4CCN(C(=O)c5ccccc5F)CC4)cc3)cc(C(F)(F)F)c2)cn1 [Compound 28j]; 0
Cc1cn(-c2cc(NCc3ccc(C(=O)Nc4cccc(C(F)(F)F)c4)cc3)cc(C(F)(F)F)c2)cn1; 54

Attention now shifts to the item below.
// lookup inhibition at 0.01 µM for Cc1cn(-c2cc(NC(=O)c3ccc(CN4CCN(C(=O)c5cccc(F)c5)CC4)cc3)cc(C(F)(F)F)c2)cn1 [Compound 28k]
43
